B1: S. cerevisiae Abp1 (full length; SH3 domain 535-592 mutated) / Hua2 (parent)
chain 1: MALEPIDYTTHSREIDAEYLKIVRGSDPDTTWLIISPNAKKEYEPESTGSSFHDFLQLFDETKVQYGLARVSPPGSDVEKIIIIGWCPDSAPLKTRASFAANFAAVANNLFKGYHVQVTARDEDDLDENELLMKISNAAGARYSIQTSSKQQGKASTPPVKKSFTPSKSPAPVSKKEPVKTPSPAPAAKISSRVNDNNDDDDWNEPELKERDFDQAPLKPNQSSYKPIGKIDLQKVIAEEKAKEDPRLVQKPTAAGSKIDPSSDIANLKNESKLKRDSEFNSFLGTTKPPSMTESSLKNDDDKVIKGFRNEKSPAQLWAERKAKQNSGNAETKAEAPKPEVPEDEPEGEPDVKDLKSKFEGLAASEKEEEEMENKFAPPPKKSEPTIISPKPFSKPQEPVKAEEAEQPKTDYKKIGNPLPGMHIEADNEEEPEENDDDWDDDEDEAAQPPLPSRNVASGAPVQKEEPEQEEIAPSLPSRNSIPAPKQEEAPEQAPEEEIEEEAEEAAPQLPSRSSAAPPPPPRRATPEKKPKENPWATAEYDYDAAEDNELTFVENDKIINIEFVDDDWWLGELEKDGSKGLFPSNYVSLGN
chain 2: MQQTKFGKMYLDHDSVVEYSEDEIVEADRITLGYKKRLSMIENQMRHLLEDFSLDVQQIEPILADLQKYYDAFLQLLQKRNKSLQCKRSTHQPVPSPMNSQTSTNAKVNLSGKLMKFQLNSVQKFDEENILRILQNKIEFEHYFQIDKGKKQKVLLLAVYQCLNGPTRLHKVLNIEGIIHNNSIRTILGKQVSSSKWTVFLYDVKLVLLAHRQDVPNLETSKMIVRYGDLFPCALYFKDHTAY

variants of: B1; test: DHFR protein-fragment complementation in yeast (Abp1-DHFR F[1,2] x partner-DHFR F[3]), deep mutational scanning, second methotrexate selection vs reference; details: with Hua2; S. cerevisiae, DHFR-PCA selection in liquid with methotrexate at 30 C, two 72 h selections (the score uses the second); reference = the pre-selection culture; not an affinity; scale: DMS score: mean over two replicates of log2(f_test/f_ref + 0.5)/ln 2, minus the synonymous-codon median
endpointName: screen value

{"mutationString": "chain 1 V588E", "endpointName": "screen value", "valueReported": -2.04}
{"mutationString": "chain 1 F583V", "endpointName": "screen value", "valueReported": -2.31}
{"mutationString": "chain 1 S579W", "endpointName": "screen value", "valueReported": -2.9}
{"mutationString": "chain 1 G578T", "endpointName": "screen value", "valueReported": -2.3}
